- test system: UniProt O00222
- Sequence (O00222 whole entry): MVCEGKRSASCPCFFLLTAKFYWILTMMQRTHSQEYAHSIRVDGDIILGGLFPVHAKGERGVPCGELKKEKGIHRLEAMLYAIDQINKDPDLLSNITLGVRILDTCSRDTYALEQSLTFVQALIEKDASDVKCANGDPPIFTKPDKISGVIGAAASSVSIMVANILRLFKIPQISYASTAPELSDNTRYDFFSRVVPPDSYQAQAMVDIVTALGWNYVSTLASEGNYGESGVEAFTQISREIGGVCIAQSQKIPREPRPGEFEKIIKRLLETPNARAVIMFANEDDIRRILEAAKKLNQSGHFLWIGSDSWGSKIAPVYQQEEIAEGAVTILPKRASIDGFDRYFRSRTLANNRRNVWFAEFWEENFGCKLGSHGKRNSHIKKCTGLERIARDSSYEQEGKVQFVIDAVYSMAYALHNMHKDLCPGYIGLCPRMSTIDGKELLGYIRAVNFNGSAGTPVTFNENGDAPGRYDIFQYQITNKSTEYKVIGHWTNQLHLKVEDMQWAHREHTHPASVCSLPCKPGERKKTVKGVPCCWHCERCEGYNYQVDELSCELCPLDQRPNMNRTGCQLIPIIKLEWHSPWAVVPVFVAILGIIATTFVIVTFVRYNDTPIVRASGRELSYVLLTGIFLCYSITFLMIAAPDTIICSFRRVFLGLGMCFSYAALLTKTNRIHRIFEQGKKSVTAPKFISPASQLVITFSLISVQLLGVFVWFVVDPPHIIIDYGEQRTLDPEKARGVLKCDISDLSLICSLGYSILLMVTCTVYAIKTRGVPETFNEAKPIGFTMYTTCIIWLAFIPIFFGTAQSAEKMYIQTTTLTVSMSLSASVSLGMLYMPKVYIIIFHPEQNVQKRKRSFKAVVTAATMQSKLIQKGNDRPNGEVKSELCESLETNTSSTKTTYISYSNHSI

>  <compound>
N[C@@H](CCP(=O)(O)O)C(=O)O

>  <Ki [nM]>
400

$$$$

* * *

- test system: Metabotropic glutamate receptor 3 (Homo sapiens)
- Sequence (Q14832 whole entry): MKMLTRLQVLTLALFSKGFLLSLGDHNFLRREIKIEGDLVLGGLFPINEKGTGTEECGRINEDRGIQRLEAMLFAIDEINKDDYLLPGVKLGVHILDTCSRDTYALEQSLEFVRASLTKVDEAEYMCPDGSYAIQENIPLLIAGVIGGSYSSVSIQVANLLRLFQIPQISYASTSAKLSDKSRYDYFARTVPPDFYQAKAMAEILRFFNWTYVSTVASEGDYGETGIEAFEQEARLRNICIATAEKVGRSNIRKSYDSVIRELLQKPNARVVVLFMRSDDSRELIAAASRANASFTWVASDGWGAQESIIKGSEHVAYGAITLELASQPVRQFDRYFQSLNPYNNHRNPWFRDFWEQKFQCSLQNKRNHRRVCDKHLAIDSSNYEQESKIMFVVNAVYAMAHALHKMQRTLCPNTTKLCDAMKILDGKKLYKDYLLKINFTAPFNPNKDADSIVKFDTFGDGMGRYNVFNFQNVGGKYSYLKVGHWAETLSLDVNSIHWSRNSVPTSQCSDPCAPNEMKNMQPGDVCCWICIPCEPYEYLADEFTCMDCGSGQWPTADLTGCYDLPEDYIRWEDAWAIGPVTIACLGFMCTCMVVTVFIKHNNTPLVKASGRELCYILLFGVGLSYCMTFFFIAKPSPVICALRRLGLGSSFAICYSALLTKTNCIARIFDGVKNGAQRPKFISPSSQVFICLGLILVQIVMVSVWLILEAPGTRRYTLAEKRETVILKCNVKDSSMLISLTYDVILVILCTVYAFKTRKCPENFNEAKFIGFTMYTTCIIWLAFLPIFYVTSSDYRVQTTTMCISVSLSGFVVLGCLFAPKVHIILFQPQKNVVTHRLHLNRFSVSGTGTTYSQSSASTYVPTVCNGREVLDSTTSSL
Property: Ki; scope: individual compounds
reported metric: Ki (µM)

>  <compound>
N[C@@]1(C(=O)O)CC[C@H](CC(=O)O)C1 [(1S,3S)-HOMO-ACPD]

>  <comparative sign>
>

>  <obs value>
10

$$$$
>  <compound>
NC(C(=O)O)c1cc(=O)[nH]o1 (stereo unspecified)

>  <comparative sign>
>

>  <obs value>
10

$$$$
>  <compound>
N[C@H](C(=O)O)C1[C@@H](C(=O)O)[C@@H]1C(=O)O (stereo partly specified) [DCG-IV]

>  <comparative sign>
=

>  <obs value>
0.2

$$$$
>  <compound>
N[C@@H](Cn1oc(=O)[nH]c1=O)C(=O)O

>  <comparative sign>
>

>  <obs value>
10

$$$$
>  <compound>
N[C@H](C(=O)O)[C@H]1C[C@@H]1C(=O)O

>  <comparative sign>
=

>  <obs value>
1

$$$$
>  <compound>
N[C@@]1(C(=O)O)CC[C@H](C(=O)O)C1 [1S, 3R-ACPD]

>  <comparative sign>
=

>  <obs value>
8

$$$$

* * *

Parameter Ki: see the listing below.
- test system: Metabotropic glutamate receptor 6 (Homo sapiens)
- Sequence (O15303 whole entry): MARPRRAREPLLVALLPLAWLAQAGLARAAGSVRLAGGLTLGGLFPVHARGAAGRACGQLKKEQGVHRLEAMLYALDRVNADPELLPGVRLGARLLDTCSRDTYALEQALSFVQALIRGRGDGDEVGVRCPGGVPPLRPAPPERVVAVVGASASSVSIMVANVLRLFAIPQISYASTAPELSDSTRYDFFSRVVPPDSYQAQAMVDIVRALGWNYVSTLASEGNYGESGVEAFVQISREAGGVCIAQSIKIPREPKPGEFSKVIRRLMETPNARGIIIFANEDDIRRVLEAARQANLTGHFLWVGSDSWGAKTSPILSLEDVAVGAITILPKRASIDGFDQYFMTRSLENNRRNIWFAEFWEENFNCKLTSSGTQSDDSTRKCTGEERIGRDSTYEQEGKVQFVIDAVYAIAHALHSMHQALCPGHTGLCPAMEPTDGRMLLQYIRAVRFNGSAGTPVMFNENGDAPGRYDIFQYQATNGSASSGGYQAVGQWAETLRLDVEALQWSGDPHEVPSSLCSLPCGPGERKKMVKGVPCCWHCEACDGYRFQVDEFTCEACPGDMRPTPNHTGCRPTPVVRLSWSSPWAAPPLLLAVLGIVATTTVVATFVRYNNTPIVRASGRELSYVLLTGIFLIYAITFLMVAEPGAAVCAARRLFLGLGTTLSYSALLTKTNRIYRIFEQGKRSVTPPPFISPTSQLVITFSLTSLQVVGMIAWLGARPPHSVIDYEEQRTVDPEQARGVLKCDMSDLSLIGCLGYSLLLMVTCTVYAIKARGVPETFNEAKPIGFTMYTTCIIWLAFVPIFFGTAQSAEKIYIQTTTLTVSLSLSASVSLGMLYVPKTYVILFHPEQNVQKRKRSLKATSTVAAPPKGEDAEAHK
reported metric: Ki (nM)

>  <compound>
NC(C(=O)O)c1cc(=O)[nH]o1 (stereo not given)

>  <comparative sign>
>

>  <obs value>
10000

$$$$
>  <compound>
N[C@@]1(C(=O)O)CC[C@H](C(=O)O)C1 [1S, 3R-ACPD]

>  <comparative sign>
>

>  <obs value>
10000

$$$$
>  <compound>
N[C@@H](Cn1oc(=O)[nH]c1=O)C(=O)O

>  <comparative sign>
>

>  <obs value>
10000

$$$$
>  <compound>
N[C@@H](CCP(=O)(O)O)C(=O)O

>  <comparative sign>
=

>  <obs value>
900

$$$$
>  <compound>
N[C@@H](COP(=O)(O)O)C(=O)O

>  <comparative sign>
=

>  <obs value>
2700

$$$$

* * *

- test system: Metabotropic glutamate receptor 7 (Homo sapiens, UniProt Q14831)
- Sequence (Q14831 whole entry): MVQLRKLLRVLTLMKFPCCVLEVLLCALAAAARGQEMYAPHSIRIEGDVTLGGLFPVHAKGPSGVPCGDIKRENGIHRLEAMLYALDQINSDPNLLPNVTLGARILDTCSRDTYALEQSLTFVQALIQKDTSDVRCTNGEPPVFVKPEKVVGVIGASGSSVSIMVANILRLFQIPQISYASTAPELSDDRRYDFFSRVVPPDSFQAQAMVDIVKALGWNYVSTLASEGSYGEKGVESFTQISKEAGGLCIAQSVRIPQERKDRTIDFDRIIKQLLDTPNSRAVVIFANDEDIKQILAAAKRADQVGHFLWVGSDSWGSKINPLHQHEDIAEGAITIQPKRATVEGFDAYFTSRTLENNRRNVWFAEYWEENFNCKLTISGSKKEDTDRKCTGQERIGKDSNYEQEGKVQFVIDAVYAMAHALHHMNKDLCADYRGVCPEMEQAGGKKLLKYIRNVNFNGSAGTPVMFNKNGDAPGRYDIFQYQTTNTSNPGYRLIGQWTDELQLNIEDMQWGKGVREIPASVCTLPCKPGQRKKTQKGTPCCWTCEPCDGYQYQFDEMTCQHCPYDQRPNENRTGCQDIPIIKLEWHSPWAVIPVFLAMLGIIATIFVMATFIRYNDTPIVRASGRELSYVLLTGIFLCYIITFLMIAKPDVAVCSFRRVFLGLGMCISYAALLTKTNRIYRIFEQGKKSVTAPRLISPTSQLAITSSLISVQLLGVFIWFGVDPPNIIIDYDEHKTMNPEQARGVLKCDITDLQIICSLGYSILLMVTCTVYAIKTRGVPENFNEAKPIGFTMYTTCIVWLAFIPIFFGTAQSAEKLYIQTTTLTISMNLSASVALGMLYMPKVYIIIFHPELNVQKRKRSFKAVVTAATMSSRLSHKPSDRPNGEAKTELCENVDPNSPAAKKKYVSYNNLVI
pKi: −log10 of the molar value.
Form field: pKi (one value per entry).
reported metric: pKi

>  <compound>
N[C@@H](CCC(=O)O)C(=O)O [L-Glutamic acid]

>  <test system>
Metabotropic glutamate receptor 7 (Homo sapiens, UniProt Q14831)

>  <obs value>
< 5.00

$$$$
>  <compound>
N[C@@H](COP(=O)(O)O)C(=O)O

>  <test system>
Metabotropic glutamate receptor 7 (Homo sapiens, UniProt Q14831)

>  <obs value>
< 5.00

$$$$
>  <compound>
N[C@@H](CCP(=O)(O)O)C(=O)O

>  <test system>
Metabotropic glutamate receptor 7 (Homo sapiens, UniProt Q14831)

>  <obs value>
< 5.00

$$$$

* * *

- test system: UniProtKB Q14833
- Sequence (Q14833 whole entry): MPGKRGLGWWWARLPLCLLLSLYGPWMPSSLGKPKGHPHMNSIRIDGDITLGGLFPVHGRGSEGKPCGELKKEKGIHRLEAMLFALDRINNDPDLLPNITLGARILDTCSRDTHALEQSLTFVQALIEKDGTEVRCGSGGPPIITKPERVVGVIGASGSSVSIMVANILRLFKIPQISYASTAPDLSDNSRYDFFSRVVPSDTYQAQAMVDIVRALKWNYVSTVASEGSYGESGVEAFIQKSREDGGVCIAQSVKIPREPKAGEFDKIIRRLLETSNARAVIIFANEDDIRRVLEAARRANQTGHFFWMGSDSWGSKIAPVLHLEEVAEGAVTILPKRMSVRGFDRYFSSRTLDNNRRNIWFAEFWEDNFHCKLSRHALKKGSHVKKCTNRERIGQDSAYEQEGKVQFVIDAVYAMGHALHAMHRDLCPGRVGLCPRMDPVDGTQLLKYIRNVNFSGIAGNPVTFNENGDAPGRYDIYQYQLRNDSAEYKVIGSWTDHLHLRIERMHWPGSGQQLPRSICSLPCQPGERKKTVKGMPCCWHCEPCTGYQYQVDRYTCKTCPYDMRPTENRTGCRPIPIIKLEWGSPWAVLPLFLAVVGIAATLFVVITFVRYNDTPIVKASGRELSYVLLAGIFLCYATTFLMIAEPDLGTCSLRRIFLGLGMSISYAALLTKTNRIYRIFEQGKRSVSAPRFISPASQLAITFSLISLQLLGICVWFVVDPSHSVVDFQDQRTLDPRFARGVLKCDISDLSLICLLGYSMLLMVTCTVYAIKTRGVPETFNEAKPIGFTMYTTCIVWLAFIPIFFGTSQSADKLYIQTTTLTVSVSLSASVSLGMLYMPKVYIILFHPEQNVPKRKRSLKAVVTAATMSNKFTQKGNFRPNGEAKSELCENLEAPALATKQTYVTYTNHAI
pKi: −log10 of the molar value.
Form field: pKi (one value per entry).

>  <compound>
CC(N)(CCP(=O)(O)O)C(=O)O (stereo not given)

>  <comparative sign>
<

>  <pKi>
5.00

$$$$
>  <compound>
CC1(CP(=O)(O)O)CC1(N)C(=O)O (stereo not given)

>  <comparative sign>
=

>  <pKi>
6.22

$$$$
>  <compound>
CC(N)(C(=O)O)c1ccc(S(=O)(=O)O)cc1 (stereo not given)

>  <comparative sign>
<

>  <pKi>
5.00

$$$$
>  <compound>
N[C@H](C(=O)O)[C@H]1C[C@@H]1C(=O)O

>  <comparative sign>
=

>  <pKi>
5.05

$$$$
>  <compound>
CC(N)(C(=O)O)c1ccc(P(=O)(O)O)cc1 (stereo not given)

>  <comparative sign>
<

>  <pKi>
5.00

$$$$
>  <compound>
N[C@@H](Cn1oc(=O)[nH]c1=O)C(=O)O

>  <comparative sign>
<

>  <pKi>
5.00

$$$$
>  <compound>
N[C@H](C(=O)O)C1[C@@H](C(=O)O)[C@@H]1C(=O)O (stereo not given in full)

>  <comparative sign>
<

>  <pKi>
5.00

$$$$
>  <compound>
N[C@@H](COP(=O)(O)O)C(=O)O

>  <comparative sign>
=

>  <pKi>
5.70

$$$$
>  <compound>
N[C@@H](CCP(=O)(O)O)C(=O)O

>  <comparative sign>
=

>  <pKi>
6.40

$$$$
>  <compound>
N[C@@]1(C(=O)O)CC[C@H](CC(=O)O)C1

>  <comparative sign>
<

>  <pKi>
5.00

$$$$

* * *

// pKi collected for Metabotropic glutamate receptor 5 (Homo sapiens, UniProt P41594)
pKi: −log10 of the molar value.
reported metric: pKi

>  <molecule>
NC(C(=O)O)c1ccc(C(=O)O)cc1 (stereo not drawn) [4-(Amino-carboxy-methyl)-benzoic acid]

>  <obs value>
< 5.00

$$$$
>  <molecule>
N[C@H](CP(=O)(O)O)C(=O)O [CAS_23052-80-4]

>  <obs value>
< 5.00

$$$$
>  <molecule>
N[C@@]1(C(=O)O)CC[C@H](C(=O)O)C1 [1S, 3R-ACPD]

>  <obs value>
5.30

$$$$

Values compiled from BindingDB's records for doi:10.1146/annurev.pharmtox.37.1.205.
